tested on: Human immunodeficiency virus 1; assay: Antiviral activity against HIV1 assessed as inhibition of viral replication; type: functional, organism-based; details: read-out: CIC95
Please enter 1 where IC95 is greater than or equal to 50 nM, and -1 where it is lower.

{"mol-smiles": "O=C(N[C@@H](Cc1ccccc1)[C@@H](O)C[C@@H](Cc1ccccc1)C(=O)N[C@H]1c2ccccc2C[C@H]1O)OC1CCCC1", "target-desc": "Human immunodeficiency virus 1", "class": 1}

IN: Assess whether reported IC95 for O=C(N[C@@H](Cc1ccccc1)[C@@H](O)C[C@@H](Cc1ccccc1)C(=O)N[C@H]1c2ccccc2C[C@H]1O)O[C@H]1CCOC1 sits at 50 nM or higher.
OUT: -1

IN: Assess whether reported IC95 for CC(C)(C)NC(=O)[C@@H]1C[C@@H]2CCCC[C@@H]2CN1C[C@@H](O)[C@H](Cc1ccccc1)NC(=O)O[C@H]1CCS(=O)(=O)C1 sits at 50 nM or higher.
OUT: 1

IN: Assess whether reported IC95 for CC(C)(C)NC(=O)[C@@H]1C[C@@H]2CCCC[C@@H]2CN1C[C@@H](O)[C@H](Cc1ccccc1)NC(=O)O[C@H]1CO[C@H]2OCC[C@H]21 sits at 50 nM or higher.
OUT: -1

IN: Assess whether reported IC95 for CC(C)(C)NC(=O)[C@@H]1C[C@@H]2CCCC[C@@H]2CN1C[C@@H](O)[C@H](Cc1ccccc1)NC(=O)O[C@H]1CCOC1 sits at 50 nM or higher.
OUT: 1

IN: Assess whether reported IC95 for CC(C)(C)NC(=O)[C@@H]1C[C@@H]2CCCC[C@@H]2CN1C[C@@H](O)[C@H](Cc1ccccc1)NC(=O)[C@@H](NC(=O)c1ccc2ccccc2n1)[C@H]1CCOC1 sits at 50 nM or higher.
OUT: -1

Where do these numbers come from? They come from ChEMBL document CHEMBL1153435.
